Assay: Cytotoxicity against HEK293 cells assessed as reduction in cell viability after 48 hrs by alamar blue assay
Assay type: toxicity, cell-based
Conditions: human
Collected EC50 at 48 h values appear next to each entry.
Give the value, in units of µM, as a plain number.

O=[N+]([O-])c1cccc(S(=O)(=O)Nc2ccc(-c3nc4cc(NS(=O)(=O)c5cccc([N+](=O)[O-])c5)ccc4o3)cc2)c1    46

Okay, next one:
Data request: Look up EC50 at 48 h: N#Cc1cccc(S(=O)(=O)Nc2ccc(-c3nc4cc(NS(=O)(=O)c5cccc(C#N)c5)ccc4o3)cc2)c1
Data returned: 45

----------
Collected pIC50 values appear next to each entry.
Target: E. coli GroEL/ES (Escherichia coli, UniProt P0A6F5)
Sequence (P0A6F5 whole entry, looked up): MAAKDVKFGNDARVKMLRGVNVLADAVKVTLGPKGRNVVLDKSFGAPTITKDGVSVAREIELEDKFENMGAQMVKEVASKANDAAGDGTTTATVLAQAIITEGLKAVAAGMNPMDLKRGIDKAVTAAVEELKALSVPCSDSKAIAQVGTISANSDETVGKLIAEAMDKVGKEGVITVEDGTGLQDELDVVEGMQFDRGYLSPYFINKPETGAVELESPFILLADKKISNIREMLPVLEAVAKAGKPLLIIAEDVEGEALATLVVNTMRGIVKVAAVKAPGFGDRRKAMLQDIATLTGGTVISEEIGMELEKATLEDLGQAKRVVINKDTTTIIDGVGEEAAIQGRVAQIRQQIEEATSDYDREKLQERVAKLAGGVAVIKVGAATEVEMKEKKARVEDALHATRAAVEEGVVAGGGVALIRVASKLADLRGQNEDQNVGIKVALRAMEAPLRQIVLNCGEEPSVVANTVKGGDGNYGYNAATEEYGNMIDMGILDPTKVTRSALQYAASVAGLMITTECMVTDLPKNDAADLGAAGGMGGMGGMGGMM
Assay: Inhibition of Escherichia coli GroEL/GroES-ATPase activity expressed in Escherichia coli DH5alpha/BL21 (DE3) assessed as inhibition of denatured MDH refolding preincubated for 10 mins followed by ATP addition measured after 20 to 40 mins by malachite green dye based fluorescence assay
Please express pIC50 as -log10 of the molar concentration.

# annotated cases, reported pIC50 shown
Cc1ccccc1S(=O)(=O)Nc1ccc(-c2nc3cc(NS(=O)(=O)c4ccccc4C)ccc3o2)cc1    3.71
O=S(=O)(Nc1ccc(-c2nc3cc(NS(=O)(=O)c4cccc(O)c4)ccc3o2)cc1)c1cccc(O)c1    6.10
Nc1cccc(S(=O)(=O)Nc2ccc(-c3nc4cc(NS(=O)(=O)c5cccc(N)c5)ccc4o3)cc2)c1    5.02
O=S(=O)(Nc1ccc(-c2nc3cc(NS(=O)(=O)c4ccccc4Br)ccc3o2)cc1)c1ccccc1Br    3.84
COC(=O)c1ccccc1S(=O)(=O)Nc1ccc(-c2nc3cc(NS(=O)(=O)c4ccccc4C(=O)OC)ccc3o2)cc1    4.28
O=S(=O)(Nc1ccc(-c2nc3cc(NS(=O)(=O)c4ccccc4)ccc3o2)cc1)c1ccccc1    5.34

Data request: Look up pIC50: O=S(=O)(Cc1ccccc1)Nc1ccc(-c2nc3cc(NS(=O)(=O)Cc4ccccc4)ccc3o2)cc1
Data returned: 3.68

Data request: Look up pIC50: O=S(=O)(Nc1ccc(-c2nc3cc(NS(=O)(=O)c4ccc(Cl)cc4)ccc3o2)cc1)c1ccc(Cl)cc1
Data returned: 4.46

Data request: Look up pIC50: O=S(=O)(Nc1ccc(-c2nc3cc(NS(=O)(=O)c4cccc(F)c4)ccc3o2)cc1)c1cccc(F)c1
Data returned: 5.29

Data request: Look up pIC50: O=c1ccc2cc(S(=O)(=O)Nc3ccc(-c4nc5cc(NS(=O)(=O)c6ccc7oc(=O)ccc7c6)ccc5o4)cc3)ccc2o1
Data returned: 4.08

Data request: Look up pIC50: O=S(=O)(Nc1ccc(-c2nc3cc(NS(=O)(=O)c4cccs4)ccc3o2)cc1)c1cccs1
Data returned: 5.17

Data request: Look up pIC50: O=S(=O)(Nc1ccc(-c2nc3cc(NS(=O)(=O)c4ccc(F)cc4)ccc3o2)cc1)c1ccc(F)cc1
Data returned: 5.37

Data request: Look up pIC50: O=S(=O)(Nc1ccc(-c2nc3cc(NS(=O)(=O)c4cccc5ccccc45)ccc3o2)cc1)c1cccc2ccccc12
Data returned: 4.27

Data request: Look up pIC50: N#Cc1cccc(S(=O)(=O)Nc2ccc(-c3nc4cc(NS(=O)(=O)c5cccc(C#N)c5)ccc4o3)cc2)c1
Data returned: 5.39

Data request: Look up pIC50: O=[N+]([O-])c1ccccc1S(=O)(=O)Nc1ccc(-c2nc3cc(NS(=O)(=O)c4ccccc4[N+](=O)[O-])ccc3o2)cc1
Data returned: 5.51

Data request: Look up pIC50: O=S(=O)(Nc1ccc(-c2nc3cc(NS(=O)(=O)c4cccc(Br)c4)ccc3o2)cc1)c1cccc(Br)c1
Data returned: 4.35

Where do these numbers come from? They come from ChEMBL document CHEMBL3856280.
